System: KM12
measurement protocol: NCI tumour cell line growth inhibition, 48 h
The source made the active and inactive calls. No stated cut-off is given here; in the data, active = GI50 up to about 1.1 µM and inactive = higher.
Hi there, I'd appreciate the recorded GI50 for every entry that follows.

Recorded GI50 for CC(=O)O[C@H]1C(=O)[C@@]2(C)C(C(OC(=O)c3ccccc3)[C@]3(O)CC(OC(=O)C(O)C(NC(=O)c4ccccc4)c4cccc(Cl)c4)C(C)=C1C3(C)C)[C@]1(OC(C)=O)CO[C@@H]1C[C@@H]2O (stereo partly drawn) , please?
3.72 µM (inactive)

Recorded GI50 for C=C(C)[C@@H]1CC[C@]2(C)CC[C@]3(C)[C@H](CC[C@@H]4[C@@]5(C)CC[C@H](OC(=O)c6ccccc6)C(C)(C)[C@@H]5CC[C@]43C)[C@@H]12 , please?
> 100 µM (inactive)

Recorded GI50 for Cn1cc(NC(=O)c2cc(NC(=O)CCCCCC(=O)Nc3cc(C(=O)Nc4cc(C(=O)NCCC(=N)N)n(C)c4)n(C)c3)cn2C)cc1C(=O)NCCC(=N)N , please?
73.8 µM (inactive)

###

System: U-251
measurement protocol: NCI tumour cell line growth inhibition, 48 h
Active and inactive are the calls of the source. No stated cut-off is given here; in the data, active = GI50 up to about 1.1 µM and inactive = higher. Where a SMILES comes first, the peptide text is derived from it. The star is where a group is joined. Boc = CC(C)(C)OC(=O)*; OSu = O=C1CCC(=O)N1O*
value type: GI50

Recorded GI50 for Clc1ccc(C2=NCON=C2c2ccc(Cl)cc2)cc1 , please?
18.3 µM (inactive)

Recorded GI50 for COC1=CC(=O)c2c(cc(COP(N)(=O)N(CCBr)CCBr)n2C)C1=O (stereo not given) , please?
< 0.01 µM (active)

Recorded GI50 for CC(NC(=O)C(NC(=O)OC(C)(C)C)C(C)C)C(=O)NCC(=O)ON1C(=O)CCC1=O (stereo not drawn) (Boc-Val-Ala-Gly-OSu; configuration not given here) , please?
> 100 µM (inactive)

Recorded GI50 for O=C(O)/C(Cc1c[nH]nn1)=N\O , please?
> 100 µM (inactive)

Recorded GI50 for C=CC(=C)CCC(Br)C(C)(C)Br (stereo not given) , please?
> 100 µM (inactive)

Recorded GI50 for CNc1nc(=O)c(C#N)c(-c2ccc(C)cc2)s1 , please?
> 100 µM (inactive)

Recorded GI50 for CC1=NN(C(=O)c2ccc(Cl)cc2)C(=O)/C1=C/c1c(O)cc(O)c2ccccc12 , please?
> 100 µM (inactive)

Recorded GI50 for Cc1nc2ccccc2c(=O)n1/N=C(\N=N\c1cc(Cl)ccc1Cl)c1ccccc1 , please?
27.1 µM (inactive)

Recorded GI50 for CCOC(=O)c1cc(-c2ccc(OC)cc2)c([N+](=O)[O-])[nH]1 , please?
> 10 µM (inactive)

Recorded GI50 for C=C1C[C@]23CC[C@@H]4C(CO)(CO)CC(=O)C[C@]4(C)[C@@H]2C(O)C[C@H]1C3 (stereo not given in full) , please?
> 100 µM (inactive)

###

Test system: UACC-257
measurement protocol: NCI tumour cell line growth inhibition, 48 h
Active and inactive are the calls of the source. Rule as the data show it: active = GI50 up to about 1.1 µM and inactive = higher.
Hi there, I'd appreciate the recorded GI50 for every entry that follows.

Recorded GI50 for O=C([C@H](O)[C@@H](O)c1ccc(Br)cc1)C12CC3CC(CC(C3)C1)C2 , please?
9.59 µM (inactive)

Recorded GI50 for C=C1c2nc3ccccc3n2C=C(c2ccc(C)cc2)N1c1ccc(OC)cc1 , please?
> 89.1 µM (inactive)

Recorded GI50 for O=S(=O)(O)c1ccc(/N=N\c2c(O)ccc3cc(Br)ccc23)cc1 , please?
> 100 µM (inactive)

Recorded GI50 for CC(=O)OC12c3ccccc3-c3ccccc3C1C1C(=O)N(C)C(=O)C12Cl (stereo not given) , please?
> 10 µM (inactive)

Recorded GI50 for CC(=O)O[C@H]1C(=O)[C@@]2(C)C(C(OC(=O)c3ccccc3)[C@]3(O)CC(OC(=O)C(O)C(NC(=O)c4ccccc4)c4cccc(Cl)c4)C(C)=C1C3(C)C)[C@]1(OC(C)=O)CO[C@@H]1C[C@@H]2O (stereo not given in full) , please?
9.46 µM (inactive)

Recorded GI50 for O=C(c1cccs1)N1CCCN(C(=O)c2cccs2)C1=S , please?
> 100 µM (inactive)

Recorded GI50 for c1ccc2c(c1)nnn2C1CCCCO1 (stereo not given) , please?
> 100 µM (inactive)

Recorded GI50 for CC(C)(S)C(N)C(=O)O (stereo not given) , please?
> 100 µM (inactive)

Recorded GI50 for NC(=O)c1ccc2c(c1)S(=O)(=O)c1ccccc1C2=O , please?
> 100 µM (inactive)

Recorded GI50 for CC1(C)C2CCC1(C)C(NC(=O)COCCOCC(N)=O)C2 (stereo not given) , please?
> 100 µM (inactive)

###

System: HT-29
measurement protocol: NCI tumour cell line growth inhibition, 48 h
Active and inactive are the calls of the source. Cut-off read from the data, not from the text of the source: active = GI50 up to about 1.1 µM and inactive = higher.
Respond using exactly one of the listed classes: Y (active), N (inactive)

Hello, I am checking results. What call was entered for CCOC(=O)CC1=N/C(=N/C(=N)N[N+](=O)[O-])SC1 ?
N

Hello, I am checking results. What call was entered for BrC1=CN2C[n+]3cc(Br)c4ccccc4c3N=C2c2ccccc21 ?
N

Hello, I am checking results. What call was entered for CC(C)(C)OC(=O)CCCCCNC(=O)CCCCCNC(=O)CCC(CN(CC(=O)OCc1ccccc1)CC(=O)OCc1ccccc1)N(CC(=O)OCc1ccccc1)CC(=O)OCc1ccccc1 (centres undefined) ?
N

Hello, I am checking results. What call was entered for COC(=O)C1CCOC(C)N1C(=O)OC(C)(C)C (centres undefined) ?
N

Hello, I am checking results. What call was entered for O=C(Sc1sc(=S)sc1SC(=O)c1ccccc1)c1ccccc1 ?
N

Hello, I am checking results. What call was entered for CCOC(=O)c1cc(-c2ccc(OC)cc2)c([N+](=O)[O-])[nH]1 ?
N

Hello, I am checking results. What call was entered for COc1ccc(C2=NNC(=O)c3ccccc3N2c2nc(-c3cccs3)nc3cc(OC)c(OC)cc23)cc1 ?
N

Hello, I am checking results. What call was entered for CCOC(=O)NC(=O)c1cn(CCCOC(=O)NCCCCCCNC(=O)OCCCn2cc(C(=O)NC(=O)OCC)c(=O)[nH]c2=O)c(=O)[nH]c1=O ?
N

Hello, I am checking results. What call was entered for O=CC12CCCN1CCC2 ?
N

Hello, I am checking results. What call was entered for CCOC(=O)C1(C(N)=O)C(=O)c2ccncc2C1=O (centres undefined) ?
N

Hello, I am checking results. What call was entered for COc1ccc(C2C3=C(COC3=O)OC(C)(C)Oc3cc4c(cc32)OCO4)cc1OC (centres undefined) ?
N

Hello, I am checking results. What call was entered for COc1ccc(-c2nc3c(nc2-c2ccc(OC)cc2)C(N)=NS(=O)(=O)N3)cc1 ?
N

Hello, I am checking results. What call was entered for C=CC(=C)CCC(Br)C(C)(C)Br (centres undefined) ?
N

Hello, I am checking results. What call was entered for O=[N+]([O-])c1ccc(-n2nnc(C3=NCCCN3)c2-c2ccc(Cl)cc2)cc1 ?
N

Hello, I am checking results. What call was entered for CCC(/C=C/c1ccccc1)=N\Nc1ccc(Cl)c(Cl)c1 ?
N

Hello, I am checking results. What call was entered for Cc1nn(C(=O)c2ccc(Cl)cc2)c2c1C(c1ccccc1[N+](=O)[O-])SC(=N)N2 (centres undefined) ?
N

Hello, I am checking results. What call was entered for COC(=O)c1nc(Cl)nc(Cl)c1Cl ?
N

Hello, I am checking results. What call was entered for O=C(NCCC1CN(C(=O)OCc2ccccc2)c2ccccc21)OCc1ccccc1 (centres undefined) ?
N

Hello, I am checking results. What call was entered for Cc1nc2ccccc2c(=O)n1/N=C(\N=N\c1cc(Cl)ccc1Cl)c1ccccc1 ?
N

Hello, I am checking results. What call was entered for CC(C)(O)[C@@H]1CCC(C)([C@H]2[C@@H](O)CC3(C)C4CC(OC5OC(CO)C(O)C(O)C5O)C5C(C)(C)[C@@H](OC6OCC(O)C(O)C6O)CC[C@@]56C[C@@]46CC[C@]23C)O1 (some centres undefined) ?
N

Hello, I am checking results. What call was entered for CC(C)=CCC\C(C)=C/C=C/C(C)=C\C=C\C(C)=C/C=C/C=C(C)\C=C\C=C(C)/C=C/C=C(/C)CCC=C(C)C ?
N

Hello, I am checking results. What call was entered for CCN(CC)c1ccc(/N=N/c2ccc(-c3nc4cccnc4s3)cc2)cc1 ?
N

Hello, I am checking results. What call was entered for COc1ccc(-n2c(=O)[nH]n(C(C)=O)c2=O)cc1 ?
N

Hello, I am checking results. What call was entered for ClCCN1CCC2(CC1)SSC1(CCN(CCCl)CC1)S2 ?
N

Hello, I am checking results. What call was entered for N#C/C(=C/c1cccc2ccccc12)C(=O)c1ccccc1 ?
N

Hello, I am checking results. What call was entered for O=c1[nH]ncc2[nH]c3c4ccccc4ccc3c12 ?
N

Hello, I am checking results. What call was entered for CC(C)(S)C(N)C(=O)O (centres undefined) ?
N

Hello, I am checking results. What call was entered for C=CCOC(=O)C1C2OC3(C(C(=O)OC)=C2C(=O)OC)c2ccccc2CCC13 (centres undefined) ?
N

Hello, I am checking results. What call was entered for Cc1ccc(C2(O)CC(c3ccc([N+](=O)[O-])o3)=NN2C(=O)COc2ccc(Cl)cc2)cc1 (centres undefined) ?
N

Hello, I am checking results. What call was entered for CCC(=O)c1cc(C(=O)C(=S)SC)cc(C(=O)C(=S)SC)c1 ?
N

Hello, I am checking results. What call was entered for Fc1ccc2nc3n(c2c1)C(c1c(Cl)cccc1Cl)SC3 (centres undefined) ?
N

Hello, I am checking results. What call was entered for O=C(c1cccs1)N1CCCN(C(=O)c2cccs2)C1=S ?
N

Hello, I am checking results. What call was entered for C#CN1C(=O)c2c(c(-c3ccccc3)c(-c3ccc(Oc4ccc(-c5c(-c6ccccc6)c6c(c(-c7ccccc7)c5-c5ccccc5)C(=O)N(C#C)C6=O)cc4)cc3)c(-c3ccccc3)c2-c2ccccc2)C1=O ?
N

Hello, I am checking results. What call was entered for COc1cc2c(c(OC)c1OC)-c1ccc(SC)c(=O)cc1[C@@H](NC(=O)c1cccc([N+](=O)[O-])c1)CC2 ?
Y
